Data origin, for the record: PubChem BioAssay AID2060508

Tested on: 454973-116-R2-J3-PDC spheroids, viability, % test/control;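 note: spheroids exposed to compounds for seven days; 100% = DMSO vehicle control viability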
Test: Anticancer human tumor 454973-116-R2-J3-PDC patient-derived pancreatic carcinoma cell line growth inhibition [GQUAD]; active = viability on the fitted dose curve at most 10% of control; inactive = the rest
Conditions: second compound 3.16 µM; first compound 3.16 µM; spheroids with HUVEC and MSC
Outcome codes: class 1 for active, class 0 for inactive

- compound: "CC(C)(O)C1CCC(Nc2ccc3ncc(-c4cccc(C(F)(F)F)c4)n3n2)CC1 (centres undefined) + Cc1cnc(CNC(=O)c2c(=O)c3ccc(N4CCCN(C)CC4)nc3n3c2sc2ccccc23)cn1"
  measured target: "454973-116-R2-J3-PDC spheroids, viability, % test/control"
  assigned class: "class 0"
- compound: "CC(=O)O[C@H]1C(=O)[C@@]2(C)[C@H]([C@H](OC(=O)c3ccccc3)[C@]3(O)C[C@H](OC(=O)[C@H](O)[C@@H](NC(=O)c4ccccc4)c4ccccc4)C(C)=C1C3(C)C)[C@]1(OC(C)=O)CO[C@@H]1C[C@@H]2O + CN(C)c1ccc(Nc2c3ccc(NC(=O)CCN4CCCC4)cc3nc3cc(NC(=O)CCN4CCCC4)ccc23)cc1"
  measured target: "454973-116-R2-J3-PDC spheroids, viability, % test/control"
  assigned class: "class 1"
- compound: "COc1ccc([C@@H](O)c2cc(-c3ncnc4cc(N5CCOCC5)ccc34)c(F)cc2Cl)nn1 + Cc1cnc(CNC(=O)c2c(=O)c3ccc(N4CCCN(C)CC4)nc3n3c2sc2ccccc23)cn1"
  measured target: "454973-116-R2-J3-PDC spheroids, viability, % test/control"
  assigned class: "class 0"
- compound: "COc1cc(C2c3cc4c(cc3C(OC3OC5COC(C)OC5C(O)C3O)C3COC(=O)C23)OCO4)cc(OC)c1O (centres undefined) + Cc1cnc(CNC(=O)c2c(=O)c3ccc(N4CCCN(C)CC4)nc3n3c2sc2ccccc23)cn1"
  measured target: "454973-116-R2-J3-PDC spheroids, viability, % test/control"
  assigned class: "class 0"
